# System: Escherichia coli TOP10
# Assay Details: shrunken log2 fold change of peptide-encoding DNA abundance (4.5 h post-induction vs induction); higher = less antimicrobial activity (less host growth inhibition)
# Condition Notes: time post-induction: 4.5 h; library: site-saturation at positions 5, 18, 19, 20
Assign class by shrunken log2 fold change: not lower than -0.01 means 1 (yes); lower than -0.01 means 0 (no).

Sequence Code	Measured Target	Category
RRIRTRPPRLPRPRPRPNTLPRP	Escherichia coli TOP10	0 (no)
RRIRYRPPRLPRPRPRPKRGPRP	Escherichia coli TOP10	1 (yes)
RRIRFRPPRLPRPRPRPISAPRP	Escherichia coli TOP10	1 (yes)
RRIRVRPPRLPRPRPRPPWGPRP	Escherichia coli TOP10	1 (yes)
RRIRWRPPRLPRPRPRPRQQPRP	Escherichia coli TOP10	0 (no)
RRIRYRPPRLPRPRPRPQVGPRP	Escherichia coli TOP10	0 (no)
RRIRPRPPRLPRPRPRPGSSPRP	Escherichia coli TOP10	0 (no)
RRIRARPPRLPRPRPRPPASPRP	Escherichia coli TOP10	1 (yes)
RRIRVRPPRLPRPRPRPQCCPRP	Escherichia coli TOP10	0 (no)
RRIRYRPPRLPRPRPRPLQSPRP	Escherichia coli TOP10	1 (yes)
RRIRERPPRLPRPRPRPSLGPRP	Escherichia coli TOP10	0 (no)
RRIRQRPPRLPRPRPRPPHHPRP	Escherichia coli TOP10	1 (yes)
RRIRVRPPRLPRPRPRPWKAPRP	Escherichia coli TOP10	1 (yes)
RRIRARPPRLPRPRPRPAQTPRP	Escherichia coli TOP10	1 (yes)

----------
# Test system: Escherichia coli TOP10
# Assay Details: shrunken log2 fold change of peptide-encoding DNA abundance (4.5 h post-induction vs induction); higher = less antimicrobial activity (less host growth inhibition)
# Condition Notes: time post-induction: 4.5 h; library: site-saturation at positions 5, 18, 19, 20
# reported shrunken log2 fold change; entries follow
Parameter: shrunken log2 fold change

Sequence Code	Measured Target	Measurement
RRIRERPPRLPRPRPRPNKTPRP	Escherichia coli TOP10	0.0491
RRIRSRPPRLPRPRPRPLLQPRP	Escherichia coli TOP10	-0.227
RRIRDRPPRLPRPRPRPNARPRP	Escherichia coli TOP10	0.299
RRIRGRPPRLPRPRPRPCENPRP	Escherichia coli TOP10	0.136
RRIRHRPPRLPRPRPRPTMDPRP	Escherichia coli TOP10	-0.179
RRIRYRPPRLPRPRPRPYSWPRP	Escherichia coli TOP10	-0.156
RRIRVRPPRLPRPRPRPQLYPRP	Escherichia coli TOP10	-0.137
RRIRGRPPRLPRPRPRPSYYPRP	Escherichia coli TOP10	0.118
RRIRFRPPRLPRPRPRPECYPRP	Escherichia coli TOP10	-0.155
RRIRARPPRLPRPRPRPMNCPRP	Escherichia coli TOP10	-0.116
RRIRFRPPRLPRPRPRPSYWPRP	Escherichia coli TOP10	-0.519
RRIRGRPPRLPRPRPRPCMFPRP	Escherichia coli TOP10	0.797
RRIRLRPPRLPRPRPRPNIFPRP	Escherichia coli TOP10	0.104
RRIRMRPPRLPRPRPRPMKVPRP	Escherichia coli TOP10	0.0398
RRIRYRPPRLPRPRPRPFTRPRP	Escherichia coli TOP10	-0.0174

----------
# Tested on: Escherichia coli TOP10;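 further: peptides expressed intracellularly from a pBAD plasmid library in pooled LB shake-flask culture, induced with 0.3% L-arabinose, DNA abundance read by NGS, three biological replicates, DESeq2 with apeglm shrinkage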
# Assay Details: shrunken log2 fold change of peptide-encoding DNA abundance (4.5 h post-induction vs induction); higher = less antimicrobial activity (less host growth inhibition)
# Condition Notes: time post-induction: 4.5 h; library: site-saturation at positions 5, 18, 19, 20
Parameter: shrunken log2 fold change

Sequence Code	Parameter	Measurement
RRIRVRPPRLPRPRPRPDLKPRP	shrunken log2 fold change	0.00797
RRIRFRPPRLPRPRPRPEWSPRP	shrunken log2 fold change	0.219
RRIRFRPPRLPRPRPRPGTLPRP	shrunken log2 fold change	-0.422
RRIRERPPRLPRPRPRPYMWPRP	shrunken log2 fold change	-0.452
RRIRERPPRLPRPRPRPCKVPRP	shrunken log2 fold change	-0.00382
RRIRGRPPRLPRPRPRPMTIPRP	shrunken log2 fold change	0.0989
RRIRNRPPRLPRPRPRPERWPRP	shrunken log2 fold change	0.699
RRIRCRPPRLPRPRPRPGVFPRP	shrunken log2 fold change	-0.00263
RRIRIRPPRLPRPRPRPLIGPRP	shrunken log2 fold change	-0.0888
RRIRDRPPRLPRPRPRPTMPPRP	shrunken log2 fold change	-0.121
RRIRNRPPRLPRPRPRPSCHPRP	shrunken log2 fold change	1.83
RRIRKRPPRLPRPRPRPRQYPRP	shrunken log2 fold change	0.0199
RRIRARPPRLPRPRPRPTLIPRP	shrunken log2 fold change	0.573
RRIRLRPPRLPRPRPRPVPVPRP	shrunken log2 fold change	-0.0404
RRIRFRPPRLPRPRPRPFLMPRP	shrunken log2 fold change	-0.263
RRIRSRPPRLPRPRPRPCSCPRP	shrunken log2 fold change	0.000754
RRIRTRPPRLPRPRPRPCNHPRP	shrunken log2 fold change	-0.214
RRIRERPPRLPRPRPRPKSPPRP	shrunken log2 fold change	0.163
RRIRNRPPRLPRPRPRPCNVPRP	shrunken log2 fold change	-0.00963
RRIRTRPPRLPRPRPRPTNWPRP	shrunken log2 fold change	0.155
RRIRNRPPRLPRPRPRPFTKPRP	shrunken log2 fold change	-0.0763
RRIRNRPPRLPRPRPRPTDIPRP	shrunken log2 fold change	-0.296
RRIRRRPPRLPRPRPRPSFAPRP	shrunken log2 fold change	0.492
RRIRCRPPRLPRPRPRPCERPRP	shrunken log2 fold change	-0.0644
RRIRDRPPRLPRPRPRPVSVPRP	shrunken log2 fold change	-0.0329
RRIRKRPPRLPRPRPRPDQGPRP	shrunken log2 fold change	-0.0154
RRIRGRPPRLPRPRPRPPVTPRP	shrunken log2 fold change	0.728
RRIRVRPPRLPRPRPRPFGPPRP	shrunken log2 fold change	-0.543
RRIRDRPPRLPRPRPRPTHHPRP	shrunken log2 fold change	0.224
RRIRMRPPRLPRPRPRPGQWPRP	shrunken log2 fold change	0.204
RRIRCRPPRLPRPRPRPTVVPRP	shrunken log2 fold change	-0.127
RRIRTRPPRLPRPRPRPVFFPRP	shrunken log2 fold change	0.0831
RRIRFRPPRLPRPRPRPWRSPRP	shrunken log2 fold change	-0.0939
RRIRNRPPRLPRPRPRPWLPPRP	shrunken log2 fold change	-0.0828
RRIRKRPPRLPRPRPRPHQHPRP	shrunken log2 fold change	0.213
RRIRDRPPRLPRPRPRPDRPPRP	shrunken log2 fold change	-0.251
RRIRTRPPRLPRPRPRPPPSPRP	shrunken log2 fold change	1.16
RRIRYRPPRLPRPRPRPINIPRP	shrunken log2 fold change	-1.21
RRIRERPPRLPRPRPRPAYQPRP	shrunken log2 fold change	0.0953
RRIRCRPPRLPRPRPRPCVAPRP	shrunken log2 fold change	0.178
RRIRNRPPRLPRPRPRPMVQPRP	shrunken log2 fold change	-0.0629
RRIRFRPPRLPRPRPRPMDWPRP	shrunken log2 fold change	0.314
RRIRLRPPRLPRPRPRPLYSPRP	shrunken log2 fold change	-1.1
RRIRTRPPRLPRPRPRPTLNPRP	shrunken log2 fold change	0.569
RRIRHRPPRLPRPRPRPCDMPRP	shrunken log2 fold change	-0.302
RRIRIRPPRLPRPRPRPNGVPRP	shrunken log2 fold change	-0.37
RRIRARPPRLPRPRPRPADQPRP	shrunken log2 fold change	0.755
RRIRDRPPRLPRPRPRPCHLPRP	shrunken log2 fold change	-0.00196
RRIRFRPPRLPRPRPRPKTAPRP	shrunken log2 fold change	0.295
RRIRERPPRLPRPRPRPNRNPRP	shrunken log2 fold change	-1.09
RRIRYRPPRLPRPRPRPNCQPRP	shrunken log2 fold change	-0.0282
RRIRWRPPRLPRPRPRPWTFPRP	shrunken log2 fold change	-0.146
RRIRWRPPRLPRPRPRPYAKPRP	shrunken log2 fold change	-0.41
RRIRIRPPRLPRPRPRPHKHPRP	shrunken log2 fold change	-0.881
RRIRSRPPRLPRPRPRPVDSPRP	shrunken log2 fold change	-0.0776
RRIRARPPRLPRPRPRPMEDPRP	shrunken log2 fold change	-0.0391
RRIRYRPPRLPRPRPRPSVRPRP	shrunken log2 fold change	-0.301
RRIRYRPPRLPRPRPRPPHCPRP	shrunken log2 fold change	-0.396
RRIRVRPPRLPRPRPRPFHPPRP	shrunken log2 fold change	-0.309
RRIRYRPPRLPRPRPRPIGFPRP	shrunken log2 fold change	0.0062
RRIRGRPPRLPRPRPRPTHCPRP	shrunken log2 fold change	0.433
RRIRARPPRLPRPRPRPDAPPRP	shrunken log2 fold change	0.942
RRIRARPPRLPRPRPRPSWMPRP	shrunken log2 fold change	-0.131
